System: OVCAR-3 ovarian
assay: NCI-60 one-dose screen, 48 h (100 = growth as untreated, 0 = no growth, -100 = all killed)
condition_notes: 10 µM unless noted
The panel holds about 83,000 compounds, 20% with a hit somewhere; the sample as a whole holds those more often.
Listed here are compounds together with their documented growth.
metric_name: growth (%)

                                    compound  reported_measurement
 0  COc1ccc(C2CCCCC2=O)cc1 (configuration not stated)                   121
 1                   CCCCNC(=O)c1ccc(OCC)cc1                   105
 2            CCOc1ccc2c(c1)c(C)cc(C)[n+]2CC                  76.2
 3                                CCOC(=O)CO                   125
 4  CCCC1OC(c2ccco2)OCC1CC (configuration not stated)                   109
 5           COc1ccc(Nc2cc(Cl)ccc2C(=O)O)cn1                  94.5
 6                       c1ccc(Nc2ccccn2)nc1                   108
 7  O=C1NCC2CCCC1C2 (configuration not stated)                   114
 8              Cc1ccnc(Nc2nc3ccccc3[nH]2)n1                   132
 9  Cc1c(-c2ccc(C3CCCCC3)cc2)nc2ccc(F)cc2c1C(=O)O                    41
10                          O=C(O)CC1=CCCCC1                   101
11  C/C=C/C1OCC(CC)C(CCC)O1 (configuration not stated)                   106

* * *

Tested on: NCI-H23 lung
assay: NCI-60 one-dose screen, 48 h
condition_notes: 10 µM unless noted
Compounds without any hit were thinned out: in the full panel of roughly 83,000, 20% have a hit. The source made the active and inactive calls. How the source made its calls: active means growth percent below 10; inactive means the rest.
Classes used: active, inactive

>>> print(df.to_string())
                                    molecule     label
 0  Cc1c(-c2ccc(C3CCCCC3)cc2)nc2ccc(F)cc2c1C(=O)O  inactive
 1                         O=Cc1ccc(O)c(O)c1  inactive
 2                    ClCc1cccc2c(CCl)cccc12  inactive
 3  C=CC(C)(C)n1cc(C2=C(O)C(=O)C(c3cn(C(C)(C)C=C)c4ccccc34)=C(O)C2=O)c2ccccc21  inactive
 4                                CCOC(=O)CO  inactive
 5  O=[N+]([O-])c1ccc2[nH]c(=S)n(/C=C(/c3ccc(Cl)cc3Cl)S(=O)(=O)Cc3ccc(Cl)cc3Cl)c2c1  inactive
 6  CN(C)CCOC(=O)Nc1ccc(Cc2ccc(NC(=O)OCCN(C)C)cc2)cc1  inactive
 7     CC(=O)c1cccc(NS(=O)(=O)c2ccc(C)cc2)c1  inactive
 8                Cc1ccc([N+](=O)[O-])c(C)n1  inactive
 9   NCC(O)C(O)C(O)C(O)CO (stereo not drawn)  inactive
10  C=COC(=O)CCOCC(CC)CCCC (stereo not drawn)  inactive
11  CC(=O)N=c1ccc2nc3c(cc(N)c4ccccc43)oc-2c1    active
12                      COc1cccc(C(=O)O)c1OC  inactive
13                           O=C(O)Cc1ccccn1  inactive
14         O=C(N/N=C\c1ccc(Cl)cc1Cl)c1ccncc1  inactive
15                                  ON1CCCC1  inactive
16                  COc1ccc(NNS(=O)(=O)O)cc1  inactive
17  C/C(=N\Nc1ccc([N+](=O)[O-])cc1[N+](=O)[O-])c1ccc(Br)cc1  inactive
